These data points were gathered from ChEMBL document CHEMBL1201862.

system: SF-539; assay: NCI tumour cell line growth inhibition, 48 h
Active and inactive are the calls of the source. Cut-off read from the data, not from the text of the source: active = GI50 up to about 1.1 µM and inactive = higher. Where a SMILES comes first, the peptide text is derived from it. The star is where a group is joined. Boc = CC(C)(C)OC(=O)*
measurement_type: GI50

// solved cases for GI50 follow
{"compound": "O=C(NNc1cn[nH]c(=O)n1)c1cccc2nc3ccccc3nc12", "recorded_result": "46.7 µM (inactive)"}
{"compound": "CC(=O)OCC(OC(C)=O)C(OC(C)=O)C(/C=N\\Nc1nc2ccccc2c(=O)[nH]1)=N\\Nc1nc2ccccc2c(=O)[nH]1 (stereo unspecified)", "recorded_result": "> 100 µM (inactive)"}
{"compound": "C=Cc1c(C)c(OC)cc2c1Oc1ccc(OC)c(C)c1CC2", "recorded_result": "> 100 µM (inactive)"}
{"compound": "CC(NC(=O)C(NC(=O)OC(C)(C)C)C(C)C)C(=O)NCC(=O)O (stereo not drawn) (Boc-Val-Ala-Gly-OH; configuration not given here)", "recorded_result": "> 100 µM (inactive)"}
{"compound": "CC1=CCC(C(C)(C)NC(=O)c2ccccc2)C/C1=N/O (stereo unspecified)", "recorded_result": "> 100 µM (inactive)"}
{"compound": "CSc1ncnc2c1cnn2Cc1cn(COCC(O)CO)nn1 (stereo unspecified)", "recorded_result": "> 100 µM (inactive)"}
{"compound": "O=[N+]([O-])c1ccc(/C=N/C2CCCCC2)cc1", "recorded_result": "> 100 µM (inactive)"}
{"compound": "Cc1cccc2c1NC(=O)/C2=N\\Nc1ccccc1[N+](=O)[O-]", "recorded_result": "2.12 µM (inactive)"}

Give the measured GI50 of CCCCC(NC(=O)CC)C(=O)O (stereo unspecified) .
> 100 µM (inactive)

Give the measured GI50 of COc1cc2cc(C(=O)N3CC(CCl)c4c3cc([N+](C)(C)Cc3ccc([N+](=O)[O-])n3C)c3ccccc43)[nH]c2c(OC)c1OC (stereo unspecified) .
2.02 µM (inactive)

Give the measured GI50 of N#CC(C#N)=C(N)/C(C#N)=C/c1ccc2[nH]ccc2c1 .
> 100 µM (inactive)

* * *

The compounds listed here are annotated with their GI50.
system: RPMI-8226; experiment: NCI tumour cell line growth inhibition, 48 h
The source made the active and inactive calls. Rule as the data show it: active = GI50 up to about 1.1 µM and inactive = higher.

// solved cases for GI50 follow
{"compound": "COC1(OC)CC2C(=O)N(Cc3ccccc3)C1CC2S(=O)(=O)c1ccccc1 (centres undefined)", "assayed_system": "RPMI-8226", "measurement_type": "GI50", "recorded_result": "> 100 µM (inactive)"}
{"compound": "CC1S/C(=N\\N=C2/C(=O)Nc3ccc(Br)cc32)N(C2CCCCC2)C1=O (centres undefined)", "assayed_system": "RPMI-8226", "measurement_type": "GI50", "recorded_result": "16.8 µM (inactive)"}
{"compound": "CC1(C)OCC(/C=C\\C(O)CC2(C)OCCO2)CO1 (centres undefined)", "assayed_system": "RPMI-8226", "measurement_type": "GI50", "recorded_result": "> 100 µM (inactive)"}

Now let's try a different one.
Give the measured GI50 of C=CCN1C(=O)CS/C1=N/NC(=O)C(O)(c1ccccc1)c1ccccc1 .
> 10 µM (inactive)

* * *

tested on: Malme-3M; experiment: NCI tumour cell line growth inhibition, 48 h
Activity calls are given as the source filed them. Cut-off read from the data, not from the text of the source: active = GI50 up to about 1.1 µM and inactive = higher.
Please answer using one outcome listed in active, inactive

{"compound": "CO[C@H]1C[C@H](O[C@H]2CC[C@]3(C=O)[C@H]4CC[C@]5(C)[C@@H](C6=CC(=O)OC6)CC[C@]5(O)[C@@H]4CC[C@]3(O)C2)O[C@H](C)[C@H]1O[C@@H]1O[C@H](CO[C@@H]2O[C@H](CO)[C@@H](O)[C@H](O)[C@H]2O)[C@@H](O)[C@H](O)[C@H]1O", "group": "active"}

Please find the next compound below.
Record lookup: outcome of this test for N/N=C(\Nc1ccccc1)SCc1ccccc1 ?
inactive

* * *

system: SNB-19; test: NCI tumour cell line growth inhibition, 48 h
Calls of active or inactive are those of the source. Rule as the data show it: active = GI50 up to about 1.1 µM and inactive = higher.
Please answer using one outcome listed in active, inactive

Examples from the recorded data:
{"compound": "C#CCN(C(=O)C(F)(F)F)c1ccc(C(=O)c2ccc(N(CC#C)C(=O)C(F)(F)F)cc2)cc1", "assayed_system": "SNB-19", "group": "inactive"}
{"compound": "CCCCCCCCCC(=O)CC(=O)c1ccc(O)cc1O", "assayed_system": "SNB-19", "group": "inactive"}
{"compound": "O=C(NCC(=O)N1CCCC1C(=O)OC(=O)C1CCCN1C(=O)CNC(=O)OCc1ccccc1)OCc1ccccc1 (centres undefined)", "assayed_system": "SNB-19", "group": "inactive"}
{"compound": "O=C(O)C(O)C(O)C(O)C(O)c1nc2ccccc2s1 (centres undefined)", "assayed_system": "SNB-19", "group": "inactive"}
{"compound": "CC(OC(=O)C(CC(=O)OC(C)(C)C)NC(=O)OC(C)(C)C)C(=O)OCc1ccccc1 (centres undefined)", "assayed_system": "SNB-19", "group": "inactive"}

Record lookup: outcome of this test for CN(C(=O)c1ccc2c(c1)sc1c(=O)n(C)c3ccccc3c12)c1ccccc1 ?
inactive

Record lookup: outcome of this test for N=C(N)C1CN(CCc2c[nH]c3ccccc23)C(=O)NC1=O (centres undefined) ?
inactive

* * *

system: SK-MEL-28; test: NCI tumour cell line growth inhibition, 48 h
Calls of active or inactive are those of the source. Cut-off read from the data, not from the text of the source: active = GI50 up to about 1.1 µM and inactive = higher.
measurement_type: GI50

// solved cases for GI50 follow
{"molecule": "Cc1nc2c(O)cc3c4c(n(Cc5ccccc5)c3c2nc1C)C(=O)CCC4", "assayed_system": "SK-MEL-28", "GI50": "22.5 µM (inactive)"}
{"molecule": "O=[N+]([O-])c1cc(C2(N3CCCCC3)CCCCC2)sc1Br", "assayed_system": "SK-MEL-28", "GI50": "5.41 µM (inactive)"}
{"molecule": "COC(=O)C1OC(Oc2cc(O)c3c(=O)cc(-c4ccc(O)cc4)oc3c2)C(O)C(O)C1O (stereo unspecified)", "assayed_system": "SK-MEL-28", "GI50": "> 100 µM (inactive)"}
{"molecule": "CCN(CC)CC(=N)N(CC)c1ccccc1", "assayed_system": "SK-MEL-28", "GI50": "> 100 µM (inactive)"}

Give the measured GI50 of OCCOCn1nc(-c2ccccc2)nc1-c1cnccn1 .
> 100 µM (inactive)

Give the measured GI50 of O=C(O)C1C2CCC(O2)C1C(=O)N1CCCCC1 (stereo unspecified) .
5.83 µM (inactive)

Give the measured GI50 of N#C/C(=C\c1ccc2[nH]ccc2c1)C(=O)c1ccc(O)c(O)c1 .
> 100 µM (inactive)

Give the measured GI50 of CC(C)=CCc1c(OC(=O)c2c(C)cc(O)cc2O)cc(CO)c(CO)c1O .
18.5 µM (inactive)

Give the measured GI50 of CC1S/C(=N\N=C2/C(=O)Nc3ccc(Br)cc32)N(C2CCCCC2)C1=O (stereo unspecified) .
6.08 µM (inactive)

Give the measured GI50 of CCC1C(c2ccccc2O)c2cc3c(cc2OC1N1CCOCC1)OCO3 (stereo unspecified) .
17.6 µM (inactive)

Give the measured GI50 of C1CCCCC2(CCCCCCCCC3(CCC1)SCCS3)SCCS2 .
> 100 µM (inactive)

* * *

system: SW-620; experiment: NCI tumour cell line growth inhibition, 48 h
The source made the active and inactive calls. Rule as the data show it: active = GI50 up to about 1.1 µM and inactive = higher.
Please answer using one outcome listed in active, inactive

Examples from the recorded data:
{"molecule": "COC(=O)C1CCc2c1c(=O)n1c([nH]c3ccccc31)c2C#N (stereo not drawn)", "assayed_system": "SW-620", "group": "inactive"}
{"molecule": "COC1=CCC=C(C[C@@H]2NCCc3cc(OC)c(OC)cc32)C1", "assayed_system": "SW-620", "group": "inactive"}
{"molecule": "COc1ccccc1/C=C1\\CCC(CN(C)C)C1=O (stereo not drawn)", "assayed_system": "SW-620", "group": "inactive"}

Record lookup: outcome of this test for O=[N+]([O-])c1ccc(/C=N/Nc2nnc3c4ccccc4c4ncccc4c3n2)o1 ?
inactive

* * *

tested on: 786-0; assay: NCI tumour cell line growth inhibition, 48 h
Calls of active or inactive are those of the source. Cut-off read from the data, not from the text of the source: active = GI50 up to about 1.1 µM and inactive = higher.
The compounds listed here are annotated with their GI50.

{"compound": "O=c1cccccc1NCCNc1cccccc1=O", "GI50": "> 100 µM (inactive)"}

Give the measured GI50 of OCCOCn1nc(-c2ccccc2)nc1-c1cnccn1 .
> 100 µM (inactive)

Give the measured GI50 of [O-][S+](Nc1ccccc1)c1ccc(N2CCOCC2)cc1 (configuration not stated) .
88.9 µM (inactive)

* * *

test system: KM12; assay: NCI tumour cell line growth inhibition, 48 h
The source made the active and inactive calls. Cut-off read from the data, not from the text of the source: active = GI50 up to about 1.1 µM and inactive = higher.
Please answer using one outcome listed in 1 = active, 0 = inactive

Examples from the recorded data:
{"compound": "CO[C@H]1C[C@H](O[C@H]2CC[C@]3(C=O)[C@H]4CC[C@]5(C)[C@@H](C6=CC(=O)OC6)CC[C@]5(O)[C@@H]4CC[C@]3(O)C2)O[C@H](C)[C@H]1O[C@@H]1O[C@H](CO[C@@H]2O[C@H](CO)[C@@H](O)[C@H](O)[C@H]2O)[C@@H](O)[C@H](O)[C@H]1O", "assayed_system": "KM12", "group": 1}
{"compound": "N#CC(c1ccccc1)N(CCCCCCN(C(=O)c1ccccc1)C(C#N)c1ccccc1)C(=O)c1ccccc1 (stereo not drawn)", "assayed_system": "KM12", "group": 0}

Please find the next compound below.
Record lookup: outcome of this test for O=[N+]([O-])c1ccc(/C=N/Nc2nnc3c4ccccc4c4ncccc4c3n2)o1 ?
0
